# credit: ChEMBL document CHEMBL1132172

study-system: Stromelysin-1 (Homo sapiens)
Sequence (P08254 whole entry): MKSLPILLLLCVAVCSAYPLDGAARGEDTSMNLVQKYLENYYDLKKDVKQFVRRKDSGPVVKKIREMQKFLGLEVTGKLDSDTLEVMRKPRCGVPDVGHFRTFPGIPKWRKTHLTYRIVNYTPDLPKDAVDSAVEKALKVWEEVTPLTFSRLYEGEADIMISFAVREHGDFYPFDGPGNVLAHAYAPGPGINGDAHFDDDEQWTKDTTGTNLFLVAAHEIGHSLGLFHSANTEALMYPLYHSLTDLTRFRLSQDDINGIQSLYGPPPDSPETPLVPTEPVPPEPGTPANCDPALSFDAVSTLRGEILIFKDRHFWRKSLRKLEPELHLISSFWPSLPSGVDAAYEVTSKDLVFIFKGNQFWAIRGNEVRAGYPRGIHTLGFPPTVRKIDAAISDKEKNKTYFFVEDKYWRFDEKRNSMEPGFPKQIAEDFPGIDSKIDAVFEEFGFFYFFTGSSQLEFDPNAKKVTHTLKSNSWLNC
Task for the reader: assign each of the following compounds its reported pIC50.
Give bare numbers, as −log10 of the molar value.

* O=C(Nc1ccc(F)cc1)Nc1nnc(S)s1 | 4.54
* Sc1nnc(NCc2ccco2)s1 | 3.54
* O=C(NCCCCc1ccccc1)Nc1nnc(S)s1 | 4.47
* O=C(NCc1cccc2ccccc12)Nc1nnc(S)s1 | 4.64

[in] Tell us which pIC50 value is on record for Sc1nnc(Nc2ccccc2)s1
[out] 3.72

---

So I've got a bunch of compounds here, and I need their pKi values.
Target chain: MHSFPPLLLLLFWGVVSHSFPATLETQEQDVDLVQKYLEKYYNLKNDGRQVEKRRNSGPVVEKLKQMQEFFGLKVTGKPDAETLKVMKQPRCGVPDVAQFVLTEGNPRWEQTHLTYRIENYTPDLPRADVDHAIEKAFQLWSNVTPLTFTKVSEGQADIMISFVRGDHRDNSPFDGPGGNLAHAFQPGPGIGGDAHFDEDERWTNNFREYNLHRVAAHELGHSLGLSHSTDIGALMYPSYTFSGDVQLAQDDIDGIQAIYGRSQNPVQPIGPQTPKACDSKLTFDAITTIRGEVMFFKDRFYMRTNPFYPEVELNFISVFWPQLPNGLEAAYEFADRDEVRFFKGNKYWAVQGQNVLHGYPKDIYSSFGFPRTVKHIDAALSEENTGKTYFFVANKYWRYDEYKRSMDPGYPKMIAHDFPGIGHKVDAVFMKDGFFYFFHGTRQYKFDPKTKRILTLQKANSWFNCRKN
pKi: −log10 of the molar value.

Hello, I would appreciate it if you could give pKi for each entry below.
1. O=C(Nc1nnc(S)s1)N[C@@H](Cc1ccccc1)C(=O)O
2. O=C(Nc1nnc(S)s1)N[C@@H](Cc1ccccc1)C(=O)NCC1CCCCC1
3. CNC(=O)[C@H](CO)NC(=O)Nc1n[nH]c(=S)s1

[out]
1. < 3.70
2. < 3.70
3. < 3.70
